Data credit: patent US10259810B2

# experimental-system: ΔF508-CFTR (Homo sapiens, UniProt P13569, DEL508-508)
# Construct: host or cells: CFBE41o-, doxycycline-inducible
# Sequence (P13569 with tags, fused parts or gaps DEL508-508): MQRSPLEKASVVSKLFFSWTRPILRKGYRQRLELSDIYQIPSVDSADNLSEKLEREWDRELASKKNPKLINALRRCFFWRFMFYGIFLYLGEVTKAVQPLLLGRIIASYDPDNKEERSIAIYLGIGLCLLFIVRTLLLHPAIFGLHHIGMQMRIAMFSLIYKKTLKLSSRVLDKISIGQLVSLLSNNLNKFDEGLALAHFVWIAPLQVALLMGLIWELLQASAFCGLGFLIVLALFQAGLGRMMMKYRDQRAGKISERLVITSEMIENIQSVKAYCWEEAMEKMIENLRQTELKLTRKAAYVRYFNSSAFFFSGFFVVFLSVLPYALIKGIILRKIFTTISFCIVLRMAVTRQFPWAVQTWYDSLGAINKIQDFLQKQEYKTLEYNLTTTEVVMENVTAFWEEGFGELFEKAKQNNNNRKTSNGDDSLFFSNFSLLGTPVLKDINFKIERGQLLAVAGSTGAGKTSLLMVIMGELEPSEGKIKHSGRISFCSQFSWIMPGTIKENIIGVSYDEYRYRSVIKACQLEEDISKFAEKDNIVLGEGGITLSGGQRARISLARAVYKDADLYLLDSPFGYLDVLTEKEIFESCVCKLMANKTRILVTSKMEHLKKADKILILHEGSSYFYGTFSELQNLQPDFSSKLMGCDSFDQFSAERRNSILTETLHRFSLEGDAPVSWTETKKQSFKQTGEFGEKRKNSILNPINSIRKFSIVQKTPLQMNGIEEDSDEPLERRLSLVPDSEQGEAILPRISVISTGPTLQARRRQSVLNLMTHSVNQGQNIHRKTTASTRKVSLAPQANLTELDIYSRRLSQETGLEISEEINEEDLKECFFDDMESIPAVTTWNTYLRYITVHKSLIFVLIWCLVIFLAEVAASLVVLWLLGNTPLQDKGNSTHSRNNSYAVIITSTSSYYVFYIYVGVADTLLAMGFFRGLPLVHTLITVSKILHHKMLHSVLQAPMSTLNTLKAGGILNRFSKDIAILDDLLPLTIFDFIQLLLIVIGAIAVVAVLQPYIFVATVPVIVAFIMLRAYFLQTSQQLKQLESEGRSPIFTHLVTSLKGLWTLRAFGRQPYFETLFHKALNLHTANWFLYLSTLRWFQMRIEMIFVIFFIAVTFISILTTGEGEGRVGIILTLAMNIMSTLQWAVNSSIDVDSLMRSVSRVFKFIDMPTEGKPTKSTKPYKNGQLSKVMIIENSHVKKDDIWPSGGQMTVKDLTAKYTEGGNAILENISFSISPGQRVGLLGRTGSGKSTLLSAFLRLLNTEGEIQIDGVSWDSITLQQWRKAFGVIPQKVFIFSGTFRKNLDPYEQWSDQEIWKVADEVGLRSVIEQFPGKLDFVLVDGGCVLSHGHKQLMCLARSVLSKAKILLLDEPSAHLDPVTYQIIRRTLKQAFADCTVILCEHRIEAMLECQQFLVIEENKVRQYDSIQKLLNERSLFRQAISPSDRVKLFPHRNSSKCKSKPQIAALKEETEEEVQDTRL
# experiment-description: CFTR cell surface levels using HRP-tagged ΔF508-CFTR expressing CFBE cells, in the presence of a co-corrector
# Type: cell-based
# protocol-conditions: HRP-tagged ΔF508-CFTR CFBE cells, in the presence of 3 μM co-corrector; read-out: EC50
Hi there, I'd appreciate the recorded pEC50 for every entry that follows.
Answers are plain numbers, as −log10 of the molar value.

Completed entries (count: 5):
compound=O=C(NS(=O)(=O)C1CC1)c1cc(N2CCC(N3CCOCC3)CC2)c2c(C3CCC3)nn(-c3ccc(F)cc3)c2n1 measured_parameter=pEC50 result_number=7.02
compound=Cc1nn(-c2ccc(OC(F)(F)F)cc2)c2nc(C(=O)NS(C)(=O)=O)cc(-c3ccc(N4CCOCC4)cc3)c12 measured_parameter=pEC50 result_number=6.39
compound="COC(=O)N1CCC2CN(c3cc(C(=O)NS(C)(=O)=O)nc4c3c(C3CCC3)nn4-c3ccccc3)CCC21 (centres unmarked)" measured_parameter=pEC50 result_number=7.32
compound="O=C(NS(=O)(=O)C1CCOC1)c1cc(N2CCC(CCN3CCOCC3)CC2)c2c(C3CCC3)nn(-c3ccc(F)cc3)c2n1 (centres unmarked)" measured_parameter=pEC50 result_number=6.03
compound=CS(=O)(=O)NC(=O)c1cc(OCCC2CCOCC2)c2c(C3CCC3)nn(-c3ccccc3)c2n1 measured_parameter=pEC50 result_number=6.33

Field: pEC50. Fill in for each record below.
1. CN(C)S(=O)(=O)NC(=O)c1cc(N2CCC(N3CC4CC3CO4)CC2)c2c(C3CCC3)nn(-c3ccc(F)cc3)c2n1 (centres unmarked)
2. O=C(NS(=O)(=O)N1CCOCC1)c1cc(OCC2CCOCC2)c2c(C3CCC3)nn(-c3ccccc3)c2n1
3. CC(=O)N1CCC(COc2cc(C(=O)NS(C)(=O)=O)nc3c2c(C2CCC2)nn3-c2ccccc2)CC1
4. CCS(=O)(=O)NC(=O)c1cc(-c2ccc(N3CCOCC3)cc2)c2c(C(C)C)nn(-c3ccc(F)c(F)c3)c2n1
5. COCCN1CCN(c2cc(C(=O)NS(C)(=O)=O)nc3c2c(C(C)C)nn3-c2ccc(F)cc2)CC1
6. CN(C)S(=O)(=O)NC(=O)c1cc(N2CCC3C(CCN3C3COC3)C2)c2c(C3CCC3)nn(-c3ccc(F)cc3)c2n1 (centres unmarked)
7. CNS(=O)(=O)NC(=O)c1cc(N2CCC(N3CCOCC3)CC2)c2c(C3CCC3)nn(-c3ccc(F)cc3)c2n1

Solution:
6.33
7.05
6.78
6.43
6.10
7.61
7.12

Field: pEC50. Fill in for each record below.
1. CC(C1CCN(c2cc(C(=O)NS(C)(=O)=O)nc3c2c(C2CCC2)nn3-c2ccc(F)cc2)CC1)N1CCOCC1 (centres unmarked)
2. COCC1CCN(c2cc(C(=O)NS(=O)(=O)C3CC3)nc3c2c(C2CCC2)nn3-c2ccccc2)CC1

Solution:
[7.23, 7.21]
